systemUnderTest: T1, Anti-CD28 Fab (SEQ ID NOs: 696, 697)
T1 construct: Biotinylated and captured on neutravidin coated plates in the phage ELISA
T1 sequence (VH, as listed by the source, chain 1 of 2): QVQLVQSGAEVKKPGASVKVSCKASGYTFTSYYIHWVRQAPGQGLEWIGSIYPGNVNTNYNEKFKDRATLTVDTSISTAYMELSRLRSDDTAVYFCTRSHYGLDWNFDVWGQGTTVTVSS
T1 sequence (VL, as listed by the source, chain 2 of 2): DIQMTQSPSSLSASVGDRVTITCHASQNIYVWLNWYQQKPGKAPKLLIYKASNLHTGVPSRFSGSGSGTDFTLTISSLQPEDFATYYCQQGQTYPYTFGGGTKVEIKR
testMethodNotes: phage binding ELISA; Fab on plate pre-incubated with CD28 antigen as competitor, anti-M13 HRP detection;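 further: crude clonal phage supernatants screened by ELISA, with comparison wells pre-incubated in blocking buffer only, lacking CD28 antigen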
Where no end group is shown, it is not given here.
observedProperty: Anti-CD28 Fab signal in the presence of CD28

# binder, measuredValue
records = [
    ("YCDGHSSMYMAKCL (cysteine pairing not given here; also: displayed on phage by fusion to pIII, pIII and linker sequence not given here, Clonal phage of the Peptide-87 library; not shown: fused to the pIII filament protein of the bacteriophage) [Phage-811]", 0.06),
    ("YCEGHAAEYMWKCL (cysteine pairing not given here; also: displayed on phage by fusion to pIII, pIII and linker sequence not given here, Clonal phage of the Peptide-87 library; not shown: fused to the pIII filament protein of the bacteriophage) [Phage-803]", 0.07),
]
